- assayed.system: Ubiquitin-conjugating enzyme E2 N (Homo sapiens) (UniProt P61088)
- Sequence (P61088 whole entry, looked up): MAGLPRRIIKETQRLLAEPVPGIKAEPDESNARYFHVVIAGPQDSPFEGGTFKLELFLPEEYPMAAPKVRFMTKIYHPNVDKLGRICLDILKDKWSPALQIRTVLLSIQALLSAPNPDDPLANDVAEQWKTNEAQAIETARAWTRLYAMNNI
- assay.details: UBE2N binders by NMR, biophysical, purified protein (AID 1552)
- condition.parameters: NMR binding to purified UBE2N
Calls of active or inactive are those of the source. The rule behind the calls is not given here.
Each entry below carries its recorded Kd.

OCc1ccc2ncccc2c1 :: > 4 mM (inactive)

I would be grateful if you could share the reported Kd for CC(C)=CCCC1(C)C=Cc2c(O)c3c(c(CC=C(C)C)c2O1)OC12C(=CCCC1C(C)(C)O[C@@]2(C/C=C(\C)C(=O)O)C(=O)O)C3=O (some centres not stated) . > 4 mM (inactive)

I would be grateful if you could share the reported Kd for C=CCc1ccc2c(c1)OCO2 . > 4 mM (inactive)

I would be grateful if you could share the reported Kd for N/C(=N/S(=O)(=O)c1cccs1)c1ccccc1 . > 4 mM (inactive)

I would be grateful if you could share the reported Kd for OCc1ccc(N2CCOCC2)nc1 . > 4 mM (inactive)

I would be grateful if you could share the reported Kd for CSc1nc(NC(C)C)nc(N2CCOCC2)n1 . > 4 mM (inactive)
